Reference for the values: ChEMBL document CHEMBL5126579

target of assay: Dipeptidyl peptidase 3 (Homo sapiens)
Sequence (Q9NY33 whole entry): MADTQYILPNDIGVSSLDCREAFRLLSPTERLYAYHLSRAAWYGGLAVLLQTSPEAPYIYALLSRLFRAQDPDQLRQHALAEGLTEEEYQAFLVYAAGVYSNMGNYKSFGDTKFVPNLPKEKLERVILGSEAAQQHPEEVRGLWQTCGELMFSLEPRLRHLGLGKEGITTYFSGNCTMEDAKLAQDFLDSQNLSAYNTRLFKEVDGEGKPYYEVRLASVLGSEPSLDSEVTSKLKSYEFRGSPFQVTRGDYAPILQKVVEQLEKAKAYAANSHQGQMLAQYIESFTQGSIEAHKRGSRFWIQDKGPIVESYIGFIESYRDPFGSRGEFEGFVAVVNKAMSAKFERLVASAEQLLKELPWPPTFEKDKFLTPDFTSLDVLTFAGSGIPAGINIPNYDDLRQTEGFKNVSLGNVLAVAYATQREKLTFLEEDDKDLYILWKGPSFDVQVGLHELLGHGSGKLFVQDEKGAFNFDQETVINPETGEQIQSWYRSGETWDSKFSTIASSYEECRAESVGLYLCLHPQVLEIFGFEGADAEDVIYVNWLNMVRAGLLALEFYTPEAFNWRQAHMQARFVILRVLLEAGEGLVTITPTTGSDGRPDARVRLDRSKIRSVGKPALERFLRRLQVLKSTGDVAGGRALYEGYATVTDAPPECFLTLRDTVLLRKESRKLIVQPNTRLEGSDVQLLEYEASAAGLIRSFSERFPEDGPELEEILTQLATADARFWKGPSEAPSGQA
protocol notes: Inhibition of DPP3 (unknown origin)
value type: pIC50
One number for each entry, as −log10 of the molar value.

Q: Quick one: pIC50 for CC(C)[C@H](N)C(=O)N[C@@H](C(C)C)[C@H](O)N[C@@H](Cc1ccccc1)C(=O)N1CCC[C@H]1C(=O)N[C@@H](Cc1c[nH]c2ccccc12)C(=O)O ?
Result: 5.07

---

Give measured pIC50 for each item. Keep answers brief.
target of assay: Dipeptidyl peptidase 3 (Homo sapiens)
protocol notes: Inhibition of human DPP3 using Arg-Arg-2-naphthylamide as substrate assessed as reduction in release of 2-naphthylamine preincubated for 10 mins followed by substrate addition and measured for 30 mins by fluorescence based analysis
One number for each entry, as −log10 of the molar value.

Here is how some molecules turned out for pIC50.
[
  {
    "substance smiles": "CC(C)[C@H](NC(=O)[C@@H](N)C(C)(C)C)/C(F)=C/[C@@H](Cc1ccccc1)C(=O)N1CCC[C@H]1C(=O)N[C@@H](Cc1c[nH]c2ccccc12)C(=O)O",
    "pIC50": 4.65
  },
  {
    "substance smiles": "CC(C)[C@H](NC(=O)[C@@H](N)C(C)(C)C)/C(F)=C/[C@@H](Cc1ccccc1)C(=O)N1CCCC[C@H]1C(=O)N[C@@H](Cc1c[nH]c2ccccc12)C(=O)O",
    "pIC50": 4.68
  },
  {
    "substance smiles": "CC(C)[C@H](N)C(=O)N[C@H](/C(F)=N/[C@@H](Cc1ccccc1)C(=O)N1CCC[C@H]1C(=O)N[C@@H](Cc1c[nH]c2ccccc12)C(=O)O)C(C)C",
    "pIC50": 5.34
  }
]

Q: Quick one: pIC50 for CC(C)[C@H](N)C(=O)N[C@H](/C(F)=C/[C@@H](Cc1ccccc1)C(=O)N1CCCC[C@H]1C(=O)N[C@@H](Cc1c[nH]c2ccccc12)C(=O)O)C(C)C ?
Result: 5.11
